# ASSAY METHOD TEXT: Apparent volume of distribution at steady state in Sprague-Dawley rat at 1 mg/kg, iv and 3 mg/kg, po
# Assay type: ADME, organism-based
# REPORTED CONDITIONS: in vivo, read-out: Vdss(app)

- SMILES: "CN(C)CCn1cc2c3c(cccc31)C1=C[C@@H](C(=O)N3CCCC3)CN(C(=O)Nc3ccccc3)[C@@H]1C2"
  UNIT ABBREVIATION: "L/kg"
  Vd: 8.3

====

# TARGET DESC: UniProt P49682
# Sequence (P49682 whole entry): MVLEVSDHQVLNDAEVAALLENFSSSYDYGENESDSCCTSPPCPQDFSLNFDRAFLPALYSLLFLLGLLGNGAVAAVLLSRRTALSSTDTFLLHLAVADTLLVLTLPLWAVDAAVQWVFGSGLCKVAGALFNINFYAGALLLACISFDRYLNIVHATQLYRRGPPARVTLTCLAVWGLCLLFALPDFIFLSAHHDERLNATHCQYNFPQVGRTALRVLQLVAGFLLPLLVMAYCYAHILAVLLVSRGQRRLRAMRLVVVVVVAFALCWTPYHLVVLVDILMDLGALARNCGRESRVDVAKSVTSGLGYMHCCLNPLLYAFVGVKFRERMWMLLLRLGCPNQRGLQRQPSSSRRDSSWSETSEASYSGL
# ASSAY METHOD TEXT: Antagonist activity at human CXCR3 expressed in mouse L1.2 cells assessed as inhibition of ITAC-induced calcium mobilization by FLIPR assay
# Assay type: functional, cell-based
pIC50: −log10 of the molar value.
# binarize pIC50: threshold 7 inclusive, high side 1, low side -1

- COMPOUND: "O=C([C@@H]1C=C2c3cccc4[nH]cc(c34)C[C@H]2N(C(=O)c2ccccc2)C1)N1CCCC1"
  ASSIGNED CATEGORY: -1
- COMPOUND: "CNC(=O)N1C[C@H](C(=O)N2CCCC2)C=C2c3cccc4[nH]cc(c34)C[C@H]21"
  ASSIGNED CATEGORY: -1
- COMPOUND: "CN(C)CCCNC(=O)N1C[C@H](C(=O)N2CCCC2)C=C2c3cccc4[nH]cc(c34)C[C@H]21"
  ASSIGNED CATEGORY: -1
- COMPOUND: "COc1cccc(NC(=O)N2C[C@H](C(=O)N3CCCC3)C=C3c4cccc5[nH]cc(c45)C[C@H]32)c1"
  ASSIGNED CATEGORY: 1
- COMPOUND: "O=C([C@@H]1C=C2c3cccc4[nH]cc(c34)C[C@H]2N(C(=O)Nc2ccccc2)C1)N1CC[C@@H](O)[C@@H](O)C1"
  ASSIGNED CATEGORY: -1
- COMPOUND: "O=C([C@@H]1C=C2c3cccc4[nH]cc(c34)C[C@H]2N(C(=O)NC2CCC(O)CC2)C1)N1CCCC1 (stereo not given in full)"
  ASSIGNED CATEGORY: -1
- COMPOUND: "O=C([C@@H]1C=C2c3cccc4[nH]cc(c34)C[C@H]2N(C(=O)Nc2ccccc2)C1)N1C=CCCC1"
  ASSIGNED CATEGORY: 1
- COMPOUND: "COc1ccccc1NC(=O)N1C[C@H](C(=O)N2CCCC2)C=C2c3cccc4[nH]cc(c34)C[C@H]21"
  ASSIGNED CATEGORY: 1
- COMPOUND: "O=C([C@@H]1C=C2c3cccc4[nH]cc(c34)C[C@H]2N(C(=O)Nc2ccsc2)C1)N1CCCC1"
  ASSIGNED CATEGORY: 1
- COMPOUND: "COCCN(CCOC)C(=O)[C@@H]1C=C2c3cccc4[nH]cc(c34)C[C@H]2N(C(=O)Nc2ccccc2)C1"
  ASSIGNED CATEGORY: -1
- COMPOUND: "O=C([C@@H]1C=C2c3cccc4[nH]cc(c34)C[C@H]2N(C(=O)Nc2ccccc2)C1)N1CC[C@H](O)C1"
  ASSIGNED CATEGORY: 1
- COMPOUND: "O=C([C@@H]1C=C2c3cccc4[nH]cc(c34)C[C@H]2N(C(=O)NCc2ccccc2)C1)N1CCCC1"
  ASSIGNED CATEGORY: -1
- COMPOUND: "O=C([C@@H]1C=C2c3cccc4[nH]cc(c34)C[C@H]2N(C(=O)Nc2ccccc2)C1)N1CCCC1"
  ASSIGNED CATEGORY: 1
- COMPOUND: "CN(C)Cc1ccc(NC(=O)N2C[C@H](C(=O)N3CCCC3)C=C3c4cccc5[nH]cc(c45)C[C@H]32)cc1"
  ASSIGNED CATEGORY: -1
- COMPOUND: "CN(C)C(=O)[C@@H]1C=C2c3cccc4[nH]cc(c34)C[C@H]2N(C(=O)Nc2ccccc2)C1"
  ASSIGNED CATEGORY: 1
- COMPOUND: "O=C([C@@H]1C=C2c3cccc4c3c(cn4CCO)C[C@H]2N(C(=O)Nc2ccccc2)C1)N1CCCC1"
  ASSIGNED CATEGORY: 1
- COMPOUND: "O=C([C@@H]1C=C2c3cccc4[nH]cc(c34)C[C@H]2N(C(=O)Cc2ccccc2)C1)N1CCCC1"
  ASSIGNED CATEGORY: -1
- COMPOUND: "O=C([C@@H]1C=C2c3cccc4[nH]cc(c34)C[C@H]2N(C(=O)Nc2cc[nH]c2)C1)N1CCCC1"
  ASSIGNED CATEGORY: -1
- COMPOUND: "CN(C)Cc1cccc(NC(=O)N2C[C@H](C(=O)N3CCCC3)C=C3c4cccc5[nH]cc(c45)C[C@H]32)c1"
  ASSIGNED CATEGORY: -1
- COMPOUND: "CN(C)CCn1cc2c3c(cccc31)C1=C[C@@H](C(=O)N3CCCC3)CN(C(=O)Nc3ccccc3)[C@@H]1C2"
  ASSIGNED CATEGORY: 1
- COMPOUND: "O=C([C@@H]1C=C2c3cccc4[nH]cc(c34)C[C@H]2N(C(=O)Nc2ccc(F)cc2)C1)N1CCCC1"
  ASSIGNED CATEGORY: 1
- COMPOUND: "O=C([C@@H]1C=C2c3cccc4c3c(cn4CCN3CCOCC3)C[C@H]2N(C(=O)Nc2ccccc2)C1)N1CCCC1"
  ASSIGNED CATEGORY: 1
- COMPOUND: "CN(CCO)C(=O)[C@@H]1C=C2c3cccc4[nH]cc(c34)C[C@H]2N(C(=O)Nc2ccccc2)C1"
  ASSIGNED CATEGORY: 1
- COMPOUND: "O=C([C@@H]1C=C2c3cccc4[nH]cc(c34)C[C@H]2N(C(=O)NCc2ccco2)C1)N1CCCC1"
  ASSIGNED CATEGORY: -1
- COMPOUND: "CC(=O)N1CCN(C(=O)[C@@H]2C=C3c4cccc5[nH]cc(c45)C[C@H]3N(C(=O)Nc3ccccc3)C2)CC1"
  ASSIGNED CATEGORY: -1
- COMPOUND: "O=C([C@@H]1C=C2c3cccc4[nH]cc(c34)C[C@H]2N(C(=O)Nc2cccc(F)c2)C1)N1CCCC1"
  ASSIGNED CATEGORY: 1
- COMPOUND: "O=C([C@@H]1C=C2c3cccc4[nH]cc(c34)C[C@H]2N(C(=O)Nc2ccccc2)C1)N1CCC(O)CC1"
  ASSIGNED CATEGORY: 1
